B1: OAS1 (parent)
chain: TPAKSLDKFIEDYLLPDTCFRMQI

variants of: B1; experiment: protein stability index of a GFP-peptide fusion (GPS, HEK-293T) (PSI 1-6); higher = more stable; conditions: c terminus: a fixed tail appended;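 further: lentivirally expressed fusions sorted by FACS into six bins by GFP to DsRed ratio, PSI derived from sequencing read proportions per bin multiplied by bin number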
VALUE TYPE: protein stability index
Lab note: jot the number down without any unit.

>>> reported_value("I24Y")
1.56
>>> reported_value("K8C")
2.99
>>> reported_value("D12Q")
2.92
>>> reported_value("I24V")
2
>>> reported_value("Q23M")
3.2
>>> reported_value("Y13M")
2.12
>>> reported_value("L6F")
4.79
>>> reported_value("Q23P")
1.99

Next:
[Q] Request the reported protein stability index associated with `A3E`
[A] 2.88
